FYI, the data here is from paper PMC5607274.

# testTarget: human recombinant Yes [a.a. 2–543 (end)] (Homo sapiens, UniProt P07947)
# Construct: human recombinant Yes [a.a; 2–543 (end)]; purchased BPS Bioscience 40488
# Sequence (P07947 2-543): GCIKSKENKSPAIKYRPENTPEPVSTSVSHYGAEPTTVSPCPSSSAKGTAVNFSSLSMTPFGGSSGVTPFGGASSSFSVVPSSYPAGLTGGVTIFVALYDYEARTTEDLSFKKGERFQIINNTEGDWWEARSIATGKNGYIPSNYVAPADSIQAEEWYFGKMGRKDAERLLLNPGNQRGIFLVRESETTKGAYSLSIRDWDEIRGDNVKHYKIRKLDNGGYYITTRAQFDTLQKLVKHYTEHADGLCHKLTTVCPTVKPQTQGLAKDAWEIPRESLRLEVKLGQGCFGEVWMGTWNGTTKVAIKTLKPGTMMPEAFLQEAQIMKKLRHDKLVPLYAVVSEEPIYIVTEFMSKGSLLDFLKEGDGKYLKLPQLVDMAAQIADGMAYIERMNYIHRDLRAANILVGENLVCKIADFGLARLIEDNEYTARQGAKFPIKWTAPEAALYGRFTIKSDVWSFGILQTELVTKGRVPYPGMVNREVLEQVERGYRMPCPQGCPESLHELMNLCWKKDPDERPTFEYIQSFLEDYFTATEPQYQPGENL
# assayProtocol: ADP-Glo kinase assay, inhibition rates of Yes phosphorylation activity (first and second screening)
# Type: biochemical
# condition: first screening; mean of n = 4 wells; 10 μmol L−1 compound
reportedMetric: First screening IR (inhibition rate) (%)
Respond numerically; units are % and should not be typed.

Below: 3 compounds and their reported First screening IR (inhibition rate).
{"smilesString": "Cc1nc2ccc(NC(=O)c3cc4ccccc4oc3=O)cc2s1", "measuredResult": 13}
{"smilesString": "CCOc1cc(/C=N/Nc2ccnc3cc(Cl)ccc23)ccc1O", "measuredResult": 9}
{"smilesString": "CCNC(=O)CN(CC)S(=O)(=O)c1cnn(-c2ccc(F)cc2)c1C", "measuredResult": 2}

Query the reported First screening IR (inhibition rate) for human recombinant Yes [a.a. 2–543 (end)] (Homo sapiens, UniProt P07947); item: "CN(Cc1ccccc1)c1nc(CN2CCOCC2)nc2sc3c(c12)CCC3" 8

Notebook: pull reported First screening IR (inhibition rate) for human recombinant Yes [a.a. 2–543 (end)] (Homo sapiens, UniProt P07947), entry "CC(C)NC(=O)Nc1ccc(C(=O)N(CCC#N)Cc2ccco2)cc1" 7

---

# testTarget: human recombinant Yes [a.a. 2–543 (end)] (Homo sapiens, UniProt P07947)
# Construct: human recombinant Yes [a.a; 2–543 (end)]; purchased BPS Bioscience 40488
# assayProtocol: ADP-Glo kinase assay, inhibition rates of Yes phosphorylation activity (first and second screening)
# Type: biochemical
# condition: first screening; mean of n = 4 wells; 10 μmol L−1 compound
reportedMetric: First screening IR (inhibition rate) (%)
Note: unit % is implicit; provide only the numeric part.

{"compound": "CC(C)c1ccc(SCc2nc(N)nc(N(C)C)n2)cc1 [Compound Z290622280]", "First screening IR (inhibition rate) (%)": 4}
{"compound": "COc1ccc(/C=N/Nc2ccnc3cc(Cl)ccc23)cc1O [Compound Z49625943]", "First screening IR (inhibition rate) (%)": 26}
{"compound": "CN(C)C(=O)c1ccc(Cl)c(NC(=O)N2CCc3ccccc3C2)c1 [Compound Z413336660]", "First screening IR (inhibition rate) (%)": 5}

GET /values?readout=First screening IR (inhibition rate)&item= O=C1NC(c2ccc(OCc3cn4ccccc4n3)cc2)Nc2ccccc21 (stereo not drawn) [Compound Z135163592] 6

Given the compound O=C(Nc1c[nH]ccc1=O)c1ccc2c(c1)CC(c1ccccc1)OC2=O (stereo not drawn) [Compound Z649184702] , what is its reported First screening IR (inhibition rate)? -7

Entry O=C(NCCOc1ccc(Cl)cc1)c1ccc2nc[nH]c2c1 [Compound Z73381327] : reported First screening IR (inhibition rate) = ? 12

Request the reported First screening IR (inhibition rate) associated with CS(=O)(=O)c1ccc(N2CCC2)c(S(C)(=O)=O)c1 [Compound Z666133744] 8

Data request, read-out First screening IR (inhibition rate), for CC(NC(=O)CCc1nc2ccccc2c(=O)[nH]1)c1cccc(C(F)(F)F)c1 (stereo not drawn) [Compound Z28541828] -5

---

First screening IR (inhibition rate) listing for selected compounds.
# testTarget: human recombinant Yes [a.a. 2–543 (end)] (Homo sapiens, UniProt P07947)
# Construct: human recombinant Yes [a.a; 2–543 (end)]; purchased BPS Bioscience 40488
# assayProtocol: ADP-Glo kinase assay, inhibition rates of Yes phosphorylation activity (first and second screening)
# Assay type: biochemical
# condition: first screening; mean of n = 4 wells; 10 μmol L−1 compound
A number alone suffices; assume %.

{"smilesString": "Cc1ccc(-c2csc3ncn(CC(=O)N4CCN(CC(=O)NC(C)(C)C)CC4)c(=O)c23)cc1C", "units": "%", "First screening IR (inhibition rate)": -8}
{"smilesString": "Nc1nccnc1C(=O)Nc1ncc(Cc2cc(F)cc(F)c2)s1", "units": "%", "First screening IR (inhibition rate)": -1}

Query compound follows.
What value of measured First screening IR (inhibition rate) is listed for "O=C(Nc1ccc2ccccc2n1)c1ccc(OCc2cccnc2)cc1" ? -12
